ADCC cytotoxic activity (51Cr release) on HEC-1-A values by entry
Molecular target: T1, CAPRIN-1 protein expressed on the membrane surface of human cancer cells (human, UniProt Q14444 2-709)
T1 sequence (looked up): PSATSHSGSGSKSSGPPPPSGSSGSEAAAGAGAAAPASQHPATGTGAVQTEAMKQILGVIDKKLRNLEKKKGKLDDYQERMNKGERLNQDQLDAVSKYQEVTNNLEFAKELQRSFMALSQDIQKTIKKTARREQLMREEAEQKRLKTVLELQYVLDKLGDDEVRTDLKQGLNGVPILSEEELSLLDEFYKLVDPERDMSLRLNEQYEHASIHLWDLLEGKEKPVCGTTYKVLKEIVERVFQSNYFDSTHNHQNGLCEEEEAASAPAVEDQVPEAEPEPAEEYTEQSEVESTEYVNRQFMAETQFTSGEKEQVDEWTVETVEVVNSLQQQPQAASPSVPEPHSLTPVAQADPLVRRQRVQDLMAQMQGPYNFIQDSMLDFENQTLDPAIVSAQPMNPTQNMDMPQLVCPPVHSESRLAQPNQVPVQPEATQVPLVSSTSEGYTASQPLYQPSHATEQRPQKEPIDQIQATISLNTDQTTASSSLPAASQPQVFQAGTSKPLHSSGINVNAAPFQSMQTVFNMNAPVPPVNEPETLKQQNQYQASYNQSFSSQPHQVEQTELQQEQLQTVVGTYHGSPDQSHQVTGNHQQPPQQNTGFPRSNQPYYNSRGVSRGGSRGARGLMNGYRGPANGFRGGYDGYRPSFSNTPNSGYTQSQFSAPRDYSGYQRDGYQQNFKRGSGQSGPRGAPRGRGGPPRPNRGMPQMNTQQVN
Assay: cell-based or functional assay

Tell me measured ADCC cytotoxic activity (51Cr release) on HEC-1-A for human-rabbit chimeric anti-CAPRIN-1 antibody (antibody, V domains shown) VH: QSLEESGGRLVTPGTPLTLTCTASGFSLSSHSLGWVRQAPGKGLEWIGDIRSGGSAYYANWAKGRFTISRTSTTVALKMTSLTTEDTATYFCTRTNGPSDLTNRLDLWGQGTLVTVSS VL: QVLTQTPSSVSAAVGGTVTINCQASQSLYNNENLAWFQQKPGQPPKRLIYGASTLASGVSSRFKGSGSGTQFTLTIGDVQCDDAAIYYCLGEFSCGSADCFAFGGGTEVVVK please.
≥ 40%

Tell me measured ADCC cytotoxic activity (51Cr release) on HEC-1-A for humanized antibody #5 (antibody, V domains shown) VH: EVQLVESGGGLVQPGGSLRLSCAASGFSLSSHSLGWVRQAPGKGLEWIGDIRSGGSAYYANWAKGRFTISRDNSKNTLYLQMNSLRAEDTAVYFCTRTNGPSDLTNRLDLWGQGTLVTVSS VL: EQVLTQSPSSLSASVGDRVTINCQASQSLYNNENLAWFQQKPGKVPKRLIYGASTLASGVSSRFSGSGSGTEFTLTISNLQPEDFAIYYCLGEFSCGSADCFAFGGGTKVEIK please.
≥ 45%

All figures here come from patent US20160297889A1.
